# Target desc: Thioredoxin reductase 1, cytoplasmic (Rattus norvegicus)
# Test method notes: qHTS Assay for Inhibitors of Mammalian Selenoprotein Thioredoxin Reductase 1 (TrxR1): qHTS; also: nearly all actives have a fitted effect of over 65% in size
# Experimental parameters: recombinant rTrxR1, NADPH fluorescence consumption, selenite substrate; series mostly up to 114 µM
About 4,000 (1%) of roughly 390,000 compounds were called active. Not shown: some 4% with an inconclusive outcome. Calls follow the shape of the dose curve; as a rule, active = well fitted inhibition curve with a large enough effect; inconclusive = small, poorly fitted or top-dose-only effect; inactive = no such curve, though single readings can be large or run the other way. What follows is part of a selection rich in actives, with near analogues and random picks from the rest.
Outcomes you can answer with include only these: active, inactive

> print(dat)
                                   compound  discrete.label
1  CCC(=O)Nc1ccc2nc(SCC(=O)N3CCc4ccccc43)sc2c1        inactive

Hey, what did the test say about COC(=O)c1ccccc1NC(=S)NC(=O)c1ccccc1F ?
active

Could you check what this test reported for CC(C)N(C(=O)CN1CCN(S(=O)(=O)c2ccc(Br)s2)CC1)C(C)C ?
inactive
